src = paper PMC2748801

Assay: Circular dichroism, α-helical content of peptide alone
Assay type: physicochemical
Conditions: CD, 10 mM H3PO4, 20 °C
Square brackets hold non-standard residues; d marks the D form. Ends that are not written are not given here. Orn = NCCC[C@H](N)C(=O)O; Dab = NCC[C@H](N)C(=O)O; Dap = NC[C@H](N)C(=O)O
Metric name: helicity (first value) (%)

> print(dat)
                       substance  value.reported
1  LKKLLKLL[Orn]KLL[Dap]LAG [2k]              48
2  LKKLLKWL[Orn]KLL[Dap]LAG [3d]              32
3      LKKLL[Orn]LLKKLLKLAG [2a]              13
4   Ac-LKKLLKWLKKLLKLAG-NH2 [2q]              19
5      LKKLL[Dab]LLKKLLKLAG [2b]              23
6   Ac-LKKLWKLLKKLLKLAG-NH2 [2p]              20

----------
Test: Circular dichroism, α-helical content of peptide alone
Type: physicochemical
Details: CD, 10 mM H3PO4, 20 °C
Square brackets hold non-standard residues; d marks the D form. Ends that are not written are not given here. Dab = NCC[C@H](N)C(=O)O; Dap = NC[C@H](N)C(=O)O
Metric name: helicity (first value)

> print(dat)
                       substance             metric.name  value.reported
1      LKKLLKLLKKLL[Dap]WAG [3g]  helicity (first value)             41%
2  LKKLL[Dab]LLKKLL[Dap]LAG [2l]  helicity (first value)             40%
3      LKKLL[Dab]LLKKLLKWAG [3e]  helicity (first value)             39%

----------
Test: Circular dichroism, α-helical content of peptide alone
Assay type: physicochemical
Details: CD, 50% TFE in 10 mM H3PO4, 20 °C
Square brackets hold non-standard residues; d marks the D form. Ends that are not written are not given here. Orn = NCCC[C@H](N)C(=O)O; Dap = NC[C@H](N)C(=O)O
Metric name: helicity (second value) (%)

> print(dat)
                       substance  result.units  value.reported
1  LKKLLKLL[Orn]KLL[Dap]WAG [3h]             %              56
2   Ac-LKKLLKLLKKLLKWAG-NH2 [2u]             %              52
3      LKKLL[Orn]LLKKLLKLAG [2a]             %              82
